Reported Signaling Assay, hMerTK with Gas6, pSTAT1 IC50 (nM) is given for each of the following binders.
Target: T1, Human MerTK on hMerTK-expressing cells (human, UniProt Q12866 21-999)
T1 sequence: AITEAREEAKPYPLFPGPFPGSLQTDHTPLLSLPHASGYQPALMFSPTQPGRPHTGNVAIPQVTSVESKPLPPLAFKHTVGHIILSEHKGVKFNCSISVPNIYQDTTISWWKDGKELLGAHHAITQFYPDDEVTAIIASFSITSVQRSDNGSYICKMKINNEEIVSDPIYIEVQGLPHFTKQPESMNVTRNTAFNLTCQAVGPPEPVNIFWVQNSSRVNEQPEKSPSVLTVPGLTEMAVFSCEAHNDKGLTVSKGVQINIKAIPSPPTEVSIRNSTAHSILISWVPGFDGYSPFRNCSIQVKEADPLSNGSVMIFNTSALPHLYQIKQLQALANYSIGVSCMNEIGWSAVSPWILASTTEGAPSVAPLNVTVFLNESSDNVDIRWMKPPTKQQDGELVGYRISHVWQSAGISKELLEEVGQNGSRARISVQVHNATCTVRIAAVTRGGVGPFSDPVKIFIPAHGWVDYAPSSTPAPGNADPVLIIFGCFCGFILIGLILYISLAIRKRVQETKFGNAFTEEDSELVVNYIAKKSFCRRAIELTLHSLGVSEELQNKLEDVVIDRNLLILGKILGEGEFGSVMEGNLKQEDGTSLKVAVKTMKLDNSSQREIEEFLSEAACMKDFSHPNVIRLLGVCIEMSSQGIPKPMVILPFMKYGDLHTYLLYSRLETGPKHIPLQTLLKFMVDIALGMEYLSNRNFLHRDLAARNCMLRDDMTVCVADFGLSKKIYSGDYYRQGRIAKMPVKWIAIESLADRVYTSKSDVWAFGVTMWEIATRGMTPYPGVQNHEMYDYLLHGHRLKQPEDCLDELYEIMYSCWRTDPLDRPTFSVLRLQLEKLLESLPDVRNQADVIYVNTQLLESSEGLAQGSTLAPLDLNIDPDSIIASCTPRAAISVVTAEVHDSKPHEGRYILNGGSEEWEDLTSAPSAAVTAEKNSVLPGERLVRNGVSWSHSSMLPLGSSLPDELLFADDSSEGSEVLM
Test: cell-based or functional assay
Give the value in nM but do not write nM after it.

Lab note: measured Signaling Assay, hMerTK with Gas6, pSTAT1 IC50 (nM) of HuMAb 10K11 (antibody, human IgG1, kappa, V domains shown, Human anti-hMerTK mAb, Bin 1) VH: QLQLQESGPGLVKPSETLSLTCAVSGYSISSDYSWGWIRQPPGKGLEWIGSIYHSGNTYFNPSLKSRVTISVDTSKNQFSLKLSSVTAADTAVYYCARDKSYYFGPGSMDVWGQGTTVTVSS VL: AIQLTQSPSSLSASVGDRVTITCRASQGISSALAWYQQKPGKAPKLLIYDASSLESGVPSRFSGSGSGTDFTLTISSLQPEDFATYYCQQFKSYLTFGQGTRLEIKR was 1.13

Lab note: measured Signaling Assay, hMerTK with Gas6, pSTAT1 IC50 (nM) of HuMAb 25J80 (antibody, human IgG1, kappa, V domains shown, Human anti-hMerTK mAb, Bin 2, derived from HuMAb 25B10 by optimization) VH: QVQLVQSGAEVKKPGASVKVSCKTSGRTFIRYYMHWVRQAPGQGLEWMGIIWPNGDQTTYAQKFQGRVTMTRDTSTSTVYMELSSLRSEDTAVYYCATTYKYAMDVWGQGTTVTVSS VL: EIVLTQSPGTLSLSPGERATLSCRASQSVRSNYLAWYQQKPGQAPRLLIYGASSRATGIPDRFSGSGSGTDFTLTISRLEPEDFAVYYCQQYESPPRTFGQGTKVEIKR was 0.227

Lab note: measured Signaling Assay, hMerTK with Gas6, pSTAT1 IC50 (nM) of Humanized mAb 4M60 (antibody, human IgG1, kappa, V domains shown, Humanized variant of moMAb 4E9, Bin 2) VH: QVQLVQSGSELKKPGASVKVSCKASGNTFTTYGMSWVRQAPGQGLEWMGWINNYSGVSTYADDFKGRFVFSLDTSVSTAYLQISSLKAEDTAVYYCARDYYGSGGWVFDYWGQGTTVTVSS VL: DVVMTQSPLSLPVTLGQPASISCKSSQSLLDSEGKTYLNWLQQRPGQSPRRLMYLVSKLDSGVPDRFSGSGSGTDFTLKISRVEAEDVGVYYCWQGTHFPRTFGGGTKVEIKR was 8.88

Lab note: measured Signaling Assay, hMerTK with Gas6, pSTAT1 IC50 (nM) of HuMAb 4K10 (antibody, human IgG1, kappa, V domains shown, Human anti-hMerTK mAb, Bin 3) VH: QVQLQQWGAGLLKPSETLSLTCAVYGGSFSGYYWSWLRQPPGKGLEWIGEISHSGSTNYNPSLKSRVTISVDTSKNQFSLKLSSVTAADTAVYYCARALSRYWYFDLWGRGTLVTVSS VL: EIVLTQSPATLSLSPGERATLSCRASQSASNYLAWYQQKPGQAPRLLIYDASNRATGIPARFSGSGSGTDFTLTISSLEPEDFAVYYCYQRSQWPISFGQGTRLEIKR was 5.42

Lab note: measured Signaling Assay, hMerTK with Gas6, pSTAT1 IC50 (nM) of HuMAb 22I16 (antibody, human IgG1, kappa, V domains shown, Human anti-hMerTK mAb, Bin 1; also called 22116) VH: EVQLVESGGGLVQPGGSLRLSCAASGFTFSSYSMNWVRQAPGKGLEWVSYIISGSDTIFYADSVKGRFTISRDNAKNSLYLQMNSLRDEDTAVYYCARDETVVRGVINYFDYWGQGTLVTVSS VL: AIQLTQSPSSLSASVGDRVTITCRSSQGISSALAWYQQKPGKAPKLLIYDASSLESGVPSRFSGSGSGTDFTLTISSLQPEDFATYYCQQFISYPTFGQGTRLEIKR was 3.41

Next:
Lab note: measured Signaling Assay, hMerTK with Gas6, pSTAT1 IC50 (nM) of MoMAb 2D9 (antibody, V domains shown, Mouse mAb; Bin 2) VH: QVQLKESGPGLVAPSQSLSITCTVSGISLSSFAISWVRQPPGKGLEWLGVIWTGGGTDYNSALKSRLTISKDTSKNQVFLKMNSLQTDDTARYYCASHWYLDVWGTGTTVTVSS VL: QAVVTQESALTTSPGETVTLTCRSSTGAVSTSNYANWVQEKPDHLFTGLIGGANSRAPGIPARFSGSLIGDKAALTITGAQTEDEAIYFCALWFSNHWVFGGGTKLTVL was 1.44
